Some molecules, each annotated with its measured composite z-score.
EXPERIMENT_DESCRIPTION: probe aWnt5a binding to arrayed compounds – biochemical, biotinylated probe, 635/667 nm fluorescence, primary screen (AID 1113);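 also: score merges 667 nm fluorescence intensity with signal-to-noise per printed feature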
CONDITION_NOTES: small-molecule microarray, higher = more signal

{"MOLECULE": "[N-]=[N+]=Nc1ccccc1C[C@]1(C(=O)N2CCCCC2)N=C(c2ccc(OCCCO)cc2)O[C@H]1c1ccccc1N=[N+]=[N-]", "composite z-score": 0.2}
{"MOLECULE": "COc1ccc(C#Cc2ccc3c(c2)[C@]2(C(=O)N3)[C@H](C(=O)N3CCN(c4ncccn4)CC3)[C@H]3C(=O)O[C@H](c4ccccc4)[C@H](c4ccccc4)N3[C@@H]2c2ccc(O)cc2)cc1", "composite z-score": 0.115}
{"MOLECULE": "COCCn1c(C(=O)N(C)C)cc2c1C[C@H]1CN(C(=O)c3ccccc3)[C@@](Cc3ccc(F)cc3)(C(=O)OC)[C@@H]21", "composite z-score": 0.0559}
{"MOLECULE": "O=C1C2C=CC(C(O)c3ccccn3)N(Nc3ccccc3F)C2C(=O)N1c1ccccc1 (stereo not given)", "composite z-score": -0.0685}
{"MOLECULE": "COc1ccc(CCNC(=O)[C@@]2(C)c3ccccc3C(=O)N(Cc3ccccc3)[C@H]2c2ccc(CO)cc2)cc1", "composite z-score": 0.0618}
{"MOLECULE": "[N-]=[N+]=Nc1ccccc1[C@@H]1OC(c2ccc(OCCCO)cc2)=N[C@]1(CCS(=O)(=O)c1ccccc1)C(=O)N1CCCCC1", "composite z-score": 0.129}
{"MOLECULE": "CN(C)CCCC[C@@H]1NC(=O)[C@@H]2C[C@H](C(=O)NCc3ccc(F)cc3)[C@H](c3cccc(OCCO)c3)N2C1=O", "composite z-score": -0.1}
{"MOLECULE": "CO[C@H]1O[C@H](CO)[C@@H](OC(=O)Nc2ccc(C(F)(F)F)cc2)[C@H](OC(=O)Nc2ccccc2)[C@@H]1OC(=O)Nc1ccccc1", "composite z-score": 0.0887}
{"MOLECULE": "O=C1OCC=C[C@H]2OC34C=CCN(Cc5ccccc5)C(=O)[C@H]3N(CCCO)C(=O)[C@@H]4[C@@H]12 (stereo not given in full)", "composite z-score": 0.0474}
{"MOLECULE": "O=C(CS)NCCCCCCNC(=O)[C@H]1C[C@H]2C(=O)N3CCC[C@H]3C(=O)N2[C@H]1c1ccc(O)cc1", "composite z-score": -0.0236}
{"MOLECULE": "NC(=O)[C@]1(Cc2ccccc2)N=C(c2ccc(OCCCO)cc2)O[C@@H]1c1ccccc1", "composite z-score": -0.0398}
{"MOLECULE": "COc1ccccc1CN1C(=O)c2ccccc2[C@](Cc2ccccc2I)(C(=O)NC2CC2)[C@@H]1c1ccc(CO)cc1", "composite z-score": 0.0704}
{"MOLECULE": "NC(=O)NCC#Cc1ccc2c(c1)[C@]1(C(=O)N2)[C@H](C(=O)NC[C@H](O)c2ccccc2)[C@H]2C(=O)O[C@H](c3ccccc3)[C@H](c3ccccc3)N2[C@@H]1c1ccccc1OCCO", "composite z-score": -0.139}
{"MOLECULE": "O[C@@H](Cc1ccccc1)[C@@H](/C=C/c1ccccc1)NCc1ccccc1Br", "composite z-score": -0.109}
{"MOLECULE": "CCN(CC)c1ccc(N2CC=CC34O[C@@H]5C=CCCOC(=O)C5[C@H]3C(=O)N(CCCO)[C@@H]4C2=O)cc1 (stereo not given in full)", "composite z-score": -0.176}

Just for reference, PubChem BioAssay is where these values come from.
